- TARGET_ENTITY: Trypanothione reductase (Trypanosoma cruzi)
- TEST_METHOD_NOTES: Linear competitive inhibition of trypanothione reductase from Trypanosoma cruzi using (ZCG.dmapa)2 substrate
REPORTED_PROPERTY: log10(Ki) (log10 of the value in µM)

# COMPOUND_STRUCTURE, log10(Ki)
rows = [
    ("C[N+](C)(CCCNc1cc(Cl)ccc1Sc1ccccc1)c1ccc(Cl)c(Cl)c1", 0.23),
    ("CC(C)(C)c1ccc([N+](C)(C)CCCN2c3ccccc3Sc3ccc(Cl)cc32)cc1", 1.82),
    ("C[N+](C)(CCCNc1cc(Cl)ccc1Sc1ccccc1)c1ccccc1", 1.15),
    ("C[N+](C)(CCCNc1cc(Cl)ccc1Sc1ccccc1)C(c1ccccc1)c1ccccc1", 0.72),
    ("C[N+](C)(CCCNc1cc(Cl)ccc1Sc1ccccc1)c1ccc(OCc2ccccc2)cc1", 0.82),
    ("CC(C)(C)c1ccc([N+](C)(C)CCCNc2cc(Cl)ccc2Sc2ccccc2)cc1", 0.81),
]

---

- Test system: Trypanosoma cruzi
- TEST_METHOD_NOTES: Antitrypanosomal activity against Trypanosoma cruzi Tulahuan
- Assay type: functional, organism-based
This listing pairs molecules with measured IC50.

# COMPOUND_STRUCTURE, IC50
rows = [
    ("CCCC(=O)Nc1cc(Cl)ccc1Sc1ccccc1", "9.4 µg/mL"),
    ("O=[N+]([O-])c1cc(Cl)ccc1Sc1ccccc1", "11.3 µg/mL"),
    ("CC(C)(C)c1ccc([N+](C)(C)CCCNc2cc(Cl)ccc2Sc2ccccc2)cc1", "< 1.1 µg/mL"),
    ("Nc1cc(Cl)ccc1Sc1ccccc1", "6.7 µg/mL"),
    ("O=C(Nc1cc(Cl)ccc1Sc1ccccc1)c1ccc([N+](=O)[O-])cc1", "> 30 µg/mL"),
    ("O=C(Nc1cc(Cl)ccc1Sc1ccccc1)c1ccccc1", "19.8 µg/mL"),
    ("CC(C)(C)c1ccc([N+](C)(C)CCCN)cc1", "> 30 µg/mL"),
    ("CCC(=O)Nc1cc(Cl)ccc1Sc1ccccc1", "18.3 µg/mL"),
    ("C[N+](C)(CCCN1c2ccccc2Sc2ccc(Cl)cc21)c1ccc(Cl)c(Cl)c1", "< 1.1 µg/mL"),
    ("CC(C)(C)c1ccc([N+](C)(C)CCCN2c3ccccc3Sc3ccc(Cl)cc32)cc1", "< 1.1 µg/mL"),
    ("O=C(Cc1ccccc1)Nc1cc(Cl)ccc1Sc1ccccc1", "> 30 µg/mL"),
]

---

- TARGET_ENTITY: Trypanothione reductase (Trypanosoma cruzi)
- TEST_METHOD_NOTES: Mixed inhibition of trypanothione reductase from Trypanosoma cruzi using TSST substrate

# COMPOUND_STRUCTURE, IC50 / µM
data = [
    ("CCCC(=O)Nc1cc(Cl)ccc1Sc1ccccc1", 30.5),
    ("O=C(Nc1cc(Cl)ccc1Sc1ccccc1)c1ccccc1", 49.6),
    ("O=C(Nc1cc(Cl)ccc1Sc1ccccc1)c1ccc([N+](=O)[O-])cc1", 44.5),
    ("CCC(=O)Nc1cc(Cl)ccc1Sc1ccccc1", 31.6),
    ("O=C(Cc1ccccc1)Nc1cc(Cl)ccc1Sc1ccccc1", 36.8),
]

---

- TARGET_ENTITY: Trypanothione reductase (Trypanosoma cruzi, UniProt P28593)
- Sequence (P28593 whole entry): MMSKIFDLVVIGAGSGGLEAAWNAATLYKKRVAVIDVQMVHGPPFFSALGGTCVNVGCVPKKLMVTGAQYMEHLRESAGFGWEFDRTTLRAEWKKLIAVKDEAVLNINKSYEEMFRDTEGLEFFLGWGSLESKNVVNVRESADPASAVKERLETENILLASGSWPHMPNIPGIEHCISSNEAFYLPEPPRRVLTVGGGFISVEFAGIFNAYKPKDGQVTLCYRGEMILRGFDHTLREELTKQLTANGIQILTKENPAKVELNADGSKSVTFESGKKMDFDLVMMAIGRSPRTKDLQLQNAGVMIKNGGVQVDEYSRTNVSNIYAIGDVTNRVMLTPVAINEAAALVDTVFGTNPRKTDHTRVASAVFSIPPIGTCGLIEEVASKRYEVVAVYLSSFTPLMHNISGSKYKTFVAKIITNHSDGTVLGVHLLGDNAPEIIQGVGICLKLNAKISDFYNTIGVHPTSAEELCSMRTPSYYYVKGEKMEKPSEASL
- TEST_METHOD_NOTES: Mixed inhibition of trypanothione reductase from Trypanosoma cruzi using TSST substrate
pKi: −log10 of the molar value.
Use rule met when the recorded pKi is no lower than 5; use rule not met when it is lower.

# COMPOUND_STRUCTURE, TARGET_ENTITY, CLASS_LABEL
rows = [
    ("CC(C)(C)c1ccc([N+](C)(C)CCCN)cc1", "Trypanothione reductase (Trypanosoma cruzi, UniProt P28593)", "rule met"),
    ("O=C(Cc1ccccc1)Nc1cc(Cl)ccc1Sc1ccccc1", "Trypanothione reductase (Trypanosoma cruzi, UniProt P28593)", "rule not met"),
    ("O=C(Nc1cc(Cl)ccc1Sc1ccccc1)c1ccc([N+](=O)[O-])cc1", "Trypanothione reductase (Trypanosoma cruzi, UniProt P28593)", "rule not met"),
    ("CCC(=O)Nc1cc(Cl)ccc1Sc1ccccc1", "Trypanothione reductase (Trypanosoma cruzi, UniProt P28593)", "rule not met"),
    ("Nc1cc(Cl)ccc1Sc1ccccc1", "Trypanothione reductase (Trypanosoma cruzi, UniProt P28593)", "rule not met"),
    ("C[N+](C)(CCCN1c2ccccc2Sc2ccc(Cl)cc21)c1ccc(Cl)c(Cl)c1", "Trypanothione reductase (Trypanosoma cruzi, UniProt P28593)", "rule met"),
    ("O=C(Nc1cc(Cl)ccc1Sc1ccccc1)c1ccccc1", "Trypanothione reductase (Trypanosoma cruzi, UniProt P28593)", "rule not met"),
]
